// read-out IC50, gathered for human GST-DYRK1A (Homo sapiens, UniProt Q13627) from published studies

COMPOUND | STUDY TARGET | IC50
CNc1cc(Nc2ccc(P3(=O)CCN(C4CCOCC4)CC3)cc2OC)nc2[nH]cc(C(F)(F)F)c12 | human GST-DYRK1A (Homo sapiens, UniProt Q13627) | < 100 nM
O=C1c2cccc(NC(=S)Nc3ncccc3Br)c2C2CC3(CCN12)SCCS3 (centres unmarked) | human GST-DYRK1A (Homo sapiens, UniProt Q13627) | > 10000 nM
CS(=O)(=O)CCNc1nc(Nc2ccc(C(=O)N3CCOCC3)c3c2OCC3)nc2[nH]cc(C#N)c12 | human GST-DYRK1A (Homo sapiens, UniProt Q13627) | 301 to 1000 nM
O=C(c1ccc(Nc2nc(NC3CCCCC3)c3c(C(F)(F)F)c[nH]c3n2)c2c1OCCO2)N1CCOCC1 | human GST-DYRK1A (Homo sapiens, UniProt Q13627) | 301 to 1000 nM
CCN1/C(=C/C(C)=O)Sc2ccc3c(c21)CCO3 | human GST-DYRK1A (Homo sapiens, UniProt Q13627) | 49 nM
COc1cc(S(=O)(=O)N2CCOCC2)ccc1Nc1cc(NC2CCC2)c2c(C#N)c[nH]c2n1 | human GST-DYRK1A (Homo sapiens, UniProt Q13627) | 301 to 1000 nM
CC[C@@H](C)Nc1nc(Nc2ccc(S(C)(=O)=O)cc2OC)nc2[nH]cc(C#N)c12 | human GST-DYRK1A (Homo sapiens, UniProt Q13627) | 301 to 1000 nM
COc1cc(P2(=O)CCN(C3CC3)CC2)ccc1Nc1nc(NCCS(C)(=O)=O)c2c(C(F)(F)F)c[nH]c2n1 | human GST-DYRK1A (Homo sapiens, UniProt Q13627) | < 100 nM

====

// read-out pIC50, gathered for human GST-DYRK1A (Homo sapiens) from published studies
pIC50: −log10 of the molar value.

SMILES CODE | pIC50
CCOCCNc1cc(Nc2ccc(C(=O)N3CCC(N4CCOCC4)CC3)c3c2OCCO3)nc2[nH]cc(C(F)(F)F)c12 | > 7.00
O=C(c1ccc(Nc2nc(NCC3CCCC3)c3c(C(F)(F)F)c[nH]c3n2)c2c1OCCO2)N1CCOCC1 | 6.00 to 6.52
COc1cc(S(=O)(=O)N2CCOCC2)ccc1Nc1nc(NCC2CCCC2)c2c(C(F)(F)F)c[nH]c2n1 | 6.00 to 6.52
N[C@H]1CCN(c2ccnc3ccc(-c4c[nH]c5ncccc45)cc23)C1 | > 8.00
COCCNc1cc(Nc2ccc(S(=O)(=O)N3CCOCC3)cc2OC)nc2[nH]cc(Cl)c12 | 6.00 to 6.52
CCCNc1nc(Nc2ccc(S(=O)(=O)N3CCOCC3)cc2OC)nc2[nH]cc(C#N)c12 | 6.00 to 6.52
CCNc1nc(Nc2ccc(C(=O)N3CCOCC3)c3c2OCO3)nc2[nH]cc(C#N)c12 | 6.00 to 6.52
N#Cc1c[nH]c2nc(Nc3ccc(C(=O)N4CC(CO)(CO)C4)c4c3OCCO4)nc(NC3CC3)c12 | 6.00 to 6.52

====

// read-out IC50, gathered for human GST-DYRK1A (Homo sapiens) from published studies

SMILES CODE | IC50
CC(C)CNc1cc(Nc2ccc(C(=O)N3CCOCC3)c3c2OCCO3)nc2[nH]cc(C(F)(F)F)c12 | 301 to 1000 nM
N#Cc1c[nH]c2nc(Nc3ccc(C(=O)N4CCC(N5CCOCC5)CC4)c4c3OCC4)nc(NCC3CCCC3)c12 | 301 to 1000 nM
N#Cc1c[nH]c2nc(Nc3ccc(C(=O)N4CCOCC4)c4c3OCCO4)nc(NC3CCCCC3)c12 | 301 to 1000 nM
CCNc1cc(Nc2ccc(C(=O)N3CCC4(CC3)CC4)c3c2OCC3)nc2[nH]cc(C(F)(F)F)c12 | 301 to 1000 nM
CNc1nc(Nc2ccc(S(=O)(=O)N3CCOCC3)cc2OC)nc2[nH]cc(C(F)(F)F)c12 | 301 to 1000 nM
Fc1cc(-c2c[nH]c3ncccc23)cc2c(-c3cccnc3)ccnc12 | < 10 nM
COCCNc1nc(Nc2ccc(C(=O)N3CCOCC3)c3c2OCCO3)nc2[nH]cc(C(F)(F)F)c12 | < 100 nM
